Exercise: state measured self-cleavage kobs at 10000 uM GlcN6P for each of the variants provided.
B1: glmS ribozyme (parent)
chain: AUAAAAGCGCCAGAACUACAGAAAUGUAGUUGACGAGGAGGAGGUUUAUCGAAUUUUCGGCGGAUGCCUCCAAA

- Variants of: B1
- protocol_text: self-cleavage kobs at 10000 uM GlcN6P; higher = faster cleavage; RNA array
- test_conditions: with glucosamine-6-phosphate
Variants at the floor of the assay were thinned out.

Example cases with answers are listed next.
sequence_variant	assay_value
G43A U54G	9.76e-05 s⁻¹
A28C C68U	0.00228 s⁻¹

Give self-cleavage kobs at 10000 uM GlcN6P for each listed item.
1. U49A C68A
2. G13U U45G
3. U30G U47C U54C C67U
4. G41A G62A
5. C8G A15U A39U G51A A52G G60U
6. A48C U56C
7. A42C G44A

Output:
1. < 1e-05 s⁻¹
2. 0.000133 s⁻¹
3. 5.7e-05 s⁻¹
4. < 1e-05 s⁻¹
5. < 1e-05 s⁻¹
6. 5.27e-05 s⁻¹
7. < 1e-05 s⁻¹

Give self-cleavage kobs at 10000 uM GlcN6P for each listed item.
1. G59U C61U
2. C8U U65G
3. G41U U69A
4. U30G U57A
5. A52G A53U
6. C16U G43A

Output:
1. < 1e-05 s⁻¹
2. < 1e-05 s⁻¹
3. 3.54e-05 s⁻¹
4. 8.3e-05 s⁻¹
5. 0.000219 s⁻¹
6. 6.17e-05 s⁻¹

Give self-cleavage kobs at 10000 uM GlcN6P for each listed item.
1. G7A C16G A52U C61A
2. C8A G59A
3. U45A C67G
4. U55A G62U
5. A14G G29C
6. G9C U49A
7. G29A G38A U46G C61U

Output:
1. < 1e-05 s⁻¹
2. < 1e-05 s⁻¹
3. 0.0006 s⁻¹
4. < 1e-05 s⁻¹
5. 0.00028 s⁻¹
6. < 1e-05 s⁻¹
7. < 1e-05 s⁻¹

Input: Data request, read-out self-cleavage kobs at 10000 uM GlcN6P, for C11G A14U G35U C70G
Output: 0.000257 s⁻¹

meta.source: the supplement of paper PMC7125110
